GI50 values by entry
- System: OVCAR-4
- test: NCI tumour cell line growth inhibition, 48 h
Activity calls are given as the source filed them. No stated cut-off is given here; in the data, active = GI50 up to about 1.1 µM and inactive = higher.
parameter-measured: GI50

>  <molecule>
CC(C)NC(=O)OCc1c(COC(=O)NC(C)C)c(-c2cc[n+](COC(=O)C3CCCCC3)cc2)n2c1CCC2

>  <tested-on>
OVCAR-4

>  <parameter-measured>
GI50

>  <result>
> 100 µM (inactive)

$$$$
>  <molecule>
COC1C(O)CC(OC2CC(Oc3cc4cc5c(c(O)c4c(O)c3C)C(=O)[C@@H](OC3CC(OC4CC(OC6CC(C)(O)C(OC(C)=O)C(C)O6)C(O)C(C)O4)C(O)C(C)O3)[C@H]([C@H](OC)C(=O)[C@@H](O)[C@@H](C)O)C5)OC(C)C2OC(C)=O)OC1C (stereo partly drawn)

>  <tested-on>
OVCAR-4

>  <parameter-measured>
GI50

>  <result>
< 0.01 µM (active)

$$$$
>  <molecule>
OC(c1cc(-c2ccccc2)nc2c1ccc1ccccc12)C1CCCCN1 (stereo not drawn)

>  <tested-on>
OVCAR-4

>  <parameter-measured>
GI50

>  <result>
1.96 µM (inactive)

$$$$
>  <molecule>
COc1cc(C(=O)n2c3ccc(Br)cc3c3nc4ccccc4nc32)cc(OC)c1OC

>  <tested-on>
OVCAR-4

>  <parameter-measured>
GI50

>  <result>
> 100 µM (inactive)

$$$$
>  <molecule>
[O-][S+](Cc1ccccn1)c1nc2ccccc2nc1-c1ccccc1 (stereo not drawn)

>  <tested-on>
OVCAR-4

>  <parameter-measured>
GI50

>  <result>
26.9 µM (inactive)

$$$$
>  <molecule>
COc1ccc(/C=C(\Cl)c2ccc(OC)cc2)cc1

>  <tested-on>
OVCAR-4

>  <parameter-measured>
GI50

>  <result>
> 100 µM (inactive)

$$$$
>  <molecule>
CC1(CO)C(=O)OC12CCCCC2 (stereo not drawn)

>  <tested-on>
OVCAR-4

>  <parameter-measured>
GI50

>  <result>
> 100 µM (inactive)

$$$$
>  <molecule>
COc1ccc2c(c1)CN1C(=N2)CSC1c1cc([N+](=O)[O-])ccc1Cl (stereo not drawn)

>  <tested-on>
OVCAR-4

>  <parameter-measured>
GI50

>  <result>
39.1 µM (inactive)

$$$$

Every entry's value here was drawn from ChEMBL document CHEMBL1201862.
